Where do the numbers come from? From patent US12421249B2.

Target: UniProt O14791
Test: Multi-Tox Assay (MultiTox-Fluor Multiplex Cytotoxicity Assay in tet-inducible APOL1 T-REx-HEK293 cells; Table 46 does not say which APOL1 variant G0/G1/G2)
Conditions: IP50 = IC50 for cell proliferation, APOL1 variant not given
ENDPOINT_NAME: IC50

Some solved cases for reference:
Q. // IC50 lookup, key: CC1COC2(C[C@@H](c3cn(C)nn3)N[C@@H](C)C2)c2cc(Cl)sc21 (stereo in doubt) [Compound 13]
A. < 50 nM

Q. # repeat for Cc1cc([C@@H]2C[C@]3(C[C@H](C)N2)OCCc2cc(Cl)sc23)[nH]n1 (racemic)
A. < 50 nM

Q. How about this compound: CC1CC2(CC(C3CC3(F)F)N1)OCCc1cc(Cl)sc12 (single isomer, unassigned) [Compound 213]
A. 50 to 500 nM

Q. Request: `C[C@H]1C[C@@]2(C[C@@H](c3cn(Cc4cccnn4)nn3)N1)OCC(F)(F)c1cc(Cl)sc12`
A. < 50 nM

Q. // same read-out, input: `CCOCCn1cc([C@@H]2C[C@]3(C[C@H](C)N2)OC[C@@H](O)c2cc(Cl)sc23)nn1`
A. < 50 nM

Field: IC50. Fill in for each record below.
1. C[C@H]1C[C@@]2(C[C@@H](c3cn(CC#N)nn3)N1)OC[C@@H](O)c1cc(Cl)sc12
2. CCOc1cc([C@@H]2C[C@]3(C[C@H](C)N2)OCCc2cc(Cl)sc23)ccc1O (racemic)
3. CCc1cc2c(s1)CCOC21C[C@@H](c2cn(C)nn2)N[C@@H](C)C1 (stereo in doubt)
4. Cc1ccnc([C@@H]2C[C@]3(C[C@H](C)N2)OCCc2cc(Cl)sc23)c1 (racemic)
5. C[C@H]1C[C@@]2(C[C@@H](c3cn(C)nn3)N1)OCCc1cc(C(F)(F)F)sc12
6. C[C@H]1CC2(CC(c3cn(C)cn3)N1)OCC(O)c1cc(Cl)sc12 (stereo in doubt) [Compound 178]

A.
["50 to 500 nM", "< 50 nM", "< 50 nM", "50 to 500 nM", "< 50 nM", "< 50 nM"]

For each entry beneath this line, provide reported IC50.
1. CCc1nc([C@@H]2C[C@]3(C[C@H](C)N2)OCCc2cc(Cl)sc23)c[nH]1 (racemic)
2. COc1ccc(C(O)Cn2cc([C@@H]3C[C@]4(C[C@H](C)N3)OCC(F)(F)c3cc(Cl)sc34)nn2)cc1 (stereo partly drawn)
3. CC(C)N1CC(Cn2cc([C@@H]3C[C@]4(C[C@H](C)N3)OC[C@@H](O)c3cc(Cl)sc34)nn2)CC1=O (stereo partly drawn)
4. C[C@H]1C[C@@]2(C[C@@H](c3ccnn3C)N1)OCCc1cc(Cl)sc12 (racemic)

A.
1. 50 to 500 nM
2. 50 to 500 nM
3. 50 to 500 nM
4. 50 to 500 nM

----------
Task for the reader: assign each of the following molecules its reported IC50.
Target: APOL1 (Homo sapiens, UniProt O14791)
Sequence (O14791 whole entry S342G/I384M, form open): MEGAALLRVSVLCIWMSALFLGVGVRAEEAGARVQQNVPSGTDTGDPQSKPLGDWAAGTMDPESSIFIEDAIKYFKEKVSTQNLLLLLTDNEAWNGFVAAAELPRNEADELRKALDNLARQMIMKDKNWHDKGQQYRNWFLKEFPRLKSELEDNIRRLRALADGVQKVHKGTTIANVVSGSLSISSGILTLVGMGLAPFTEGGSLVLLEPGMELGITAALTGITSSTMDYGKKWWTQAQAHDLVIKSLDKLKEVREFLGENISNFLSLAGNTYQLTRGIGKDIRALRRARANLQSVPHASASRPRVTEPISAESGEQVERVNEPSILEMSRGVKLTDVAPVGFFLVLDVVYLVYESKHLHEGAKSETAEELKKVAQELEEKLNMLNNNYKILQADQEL
Assay: Multi-Tox Assay (MultiTox-Fluor Multiplex Cytotoxicity Assay in tet-inducible APOL1 T-REx-HEK293 cells; Table 46 does not say which APOL1 variant G0/G1/G2)
Conditions: IP50 = IC50 for cell proliferation, APOL1 variant not given

Worked examples follow.
Q. What does the record list as IC50 for CC(=O)Nc1cccc([C@@H]2C[C@]3(C[C@H](C)N2)OCCc2cc(Cl)sc23)c1 (racemic) ?
A. < 50 nM

Q. Similarly, `COc1ccc(Cn2cc([C@@H]3C[C@]4(C[C@H](C)N3)OC[C@@H](O)c3cc(Cl)sc34)nn2)cc1` ?
A. < 50 nM

Q. Cool, now CCC1CC2(CC(c3cn(C)nn3)N1)OCCc1cc(C(F)(F)F)sc12 (centres unmarked)
A. < 50 nM

Q. And for C[C@H]1C[C@@]2(C[C@@H](c3cnc(C4CC4)nc3)N1)OCCc1cc(Cl)sc12 (racemic) ?
A. < 50 nM

Q. Input CC(CO)CCn1cc([C@@H]2C[C@]3(C[C@H](C)N2)OCC(F)(F)c2cc(Cl)sc23)nn1 (some centres unmarked)
A. > 500 nM

For the 5 molecules below, give their IC50 values.
1. C[C@H]1C[C@@]2(C[C@@H](c3cnn(C4CCS(=O)(=O)C4)c3)N1)OCCc1cc(Cl)sc12 (stereo in doubt)
2. C[C@H]1C[C@@]2(C[C@@H](c3cnc4n3CCOC4)N1)OCCc1cc(Cl)sc12 (racemic)
3. CC1CC2(CC(c3cc(F)cc(C#N)c3)N1)OCCc1cc(Cl)sc12 (centres unmarked)
4. Cc1ccnn1CCn1cc([C@@H]2C[C@]3(C[C@H](C)N2)OCC(F)(F)c2cc(Cl)sc23)nn1
5. COCC1(Cn2cc([C@@H]3C[C@]4(C[C@H](C)N3)OCC(F)(F)c3cc(Cl)sc34)nn2)CC1

A.
["< 50 nM", "50 to 500 nM", "< 50 nM", "50 to 500 nM", "> 500 nM"]

Please supply IC50 for each of the following items, keeping them in order.
1. Cc1cc([C@@H]2C[C@]3(C[C@H](C)N2)OCCc2cc(Cl)sc23)ccc1O (racemic)
2. C[C@H]1CC2(C[C@@H](c3cn(C)nn3)N1)OCCc1sc(Cl)cc12 (single isomer, unassigned)
3. COCCOCCOc1ccc([C@@H]2C[C@]3(C[C@H](C)N2)OCCc2cc(Cl)sc23)cc1 (racemic)
4. C[C@H]1C[C@@]2(C[C@@H](c3ccc(=O)n(C)c3)N1)OCCc1cc(Cl)sc12 (racemic)
5. C[C@H]1C[C@@]2(C[C@@H](c3cn(CC(C)(C)O)nn3)N1)OC[C@@H](O)c1cc(Cl)sc12
6. Cc1c(Cn2cc([C@@H]3C[C@]4(C[C@H](C)N3)OCC(F)(F)c3cc(Cl)sc34)nn2)cnn1C

A.
["< 50 nM", "< 50 nM", "< 50 nM", "< 50 nM", "50 to 500 nM", "50 to 500 nM"]

Fill in IC50 for each of the 3 molecules listed.
1. Cc1nc(Cn2cc([C@@H]3C[C@]4(C[C@H](C)N3)OC[C@@H](O)c3cc(Cl)sc34)nn2)oc1C
2. C[C@H]1C[C@@]2(C[C@@H](c3cn(Cc4nc5ncccc5[nH]4)nn3)N1)OCC(F)(F)c1cc(Cl)sc12
3. Cc1cc(C)nc(CCn2cc([C@@H]3C[C@]4(C[C@H](C)N3)OC[C@@H](O)c3cc(Cl)sc34)nn2)c1

A.
< 50 nM
50 to 500 nM
< 50 nM

Batch request: IC50 per item, same order as input.
1. Cc1cc([C@@H]2C[C@]3(C[C@H](C)N2)OCCc2cc(Cl)sc23)nc(N(C)C)n1 (racemic)
2. C[C@H]1C[C@@]2(C[C@@H](c3cnc(-c4cnn(C)c4)nc3)N1)OCCc1cc(Cl)sc12 (stereo in doubt)
3. C[C@H]1C[C@@]2(C[C@@H](c3cn(Cc4ccc(CO)cc4)nn3)N1)OC[C@@H](O)c1cc(Cl)sc12
4. C[C@H]1C[C@@]2(C[C@@H](c3cccnn3)N1)OCCc1cc(Cl)sc12 (racemic)
5. Cc1cc([C@@H]2C[C@]3(C[C@H](C)N2)OCCc2cc(Cl)sc23)on1 (racemic)
6. C[C@H]1C[C@@]2(C[C@@H](c3cn(Cc4cnc5cnccn45)nn3)N1)OCC(F)(F)c1cc(Cl)sc12
7. Cc1nccnc1[C@@H]1C[C@]2(C[C@H](C)N1)OCCc1cc(Cl)sc12 (racemic)
8. COc1ccc([C@@H]2C[C@]3(C[C@H](C)N2)OCCc2cc(Cl)sc23)cc1O (racemic)

A.
["50 to 500 nM", "< 50 nM", "50 to 500 nM", "< 50 nM", "< 50 nM", "< 50 nM", "> 500 nM", "< 50 nM"]

# return IC50 for each item in the list
1. Cc1cc([C@@H]2C[C@]3(C[C@H](C)N2)OCCc2cc(Cl)sc23)ccn1 (racemic)
2. C[C@H]1C[C@@]2(C[C@@H](c3cn(CC4CCC4)nn3)N1)OC[C@@H](O)c1cc(Cl)sc12

A.
< 50 nM
< 50 nM
